Hello, the source for this data is ChEMBL document CHEMBL1201862, in case you need it.

# Tested on: KM-20L2
# protocolDescription: NCI tumour cell line growth inhibition, 48 h
The source made the active and inactive calls. Rule as the data show it: active = GI50 up to about 1.1 µM and inactive = higher.
observationType: GI50

Check out these entries, answers already filled in.
Considering C=C=C(CC)C(C(=O)OC)N(CC)CC (stereo unspecified) , its GI50 with KM-20L2 was recorded as > 100 µM (inactive)

Short answer on KM-20L2 for `Nc1nc(N)c(CCCCc2ccc([N+](=O)[O-])cc2)c(N)n1` , GI50: 36.1 µM (inactive)

GI50 of CCCC[S+]([O-])CC(CO)NC(=O)/C=C/c1c(C)[nH]c(=O)[nH]c1=O (stereo unspecified) , assay on KM-20L2, is 5.64 µM (inactive)

Measured GI50 for this entry `COC(=O)CSc1nnc(-c2ccc(O)c([N+](=O)[O-])c2)[nH]1` on KM-20L2: > 100 µM (inactive)

Form: item COC(=O)C(=O)C(C#N)c1cccc2ccccc12 (stereo unspecified) ; test system KM-20L2; GI50: > 100 µM (inactive)

Lab note: next compound to report on.
Field GI50 (KM-20L2), entry `CCOC(=O)C=C1CCN(C(=O)c2ccccc2)CC1` : > 100 µM (inactive)

----------
# Tested on: UO-31
# protocolDescription: NCI tumour cell line growth inhibition, 48 h
Active and inactive are the calls of the source. Rule as the data show it: active = GI50 up to about 1.1 µM and inactive = higher.
Measured GI50 values are reported for all entries that follow.

Examples from the recorded data:
// returns GI50 for `COc1cc2cc[n+]3c4cc(OC)c(OC)cc4c(C)cc3c2cc1OC` with UO-31; value = > 100 µM (inactive)

Case CCOC(=O)[C@H]1O[C@@H]1C(=O)NC(CC(C)C)C(=O)NCCC(C)C (some centres undefined) , UO-31, GI50 recorded as > 100 µM (inactive)

The reported GI50 value, UO-31, for C=C1CC2[C@H](C)C(=O)CCC2(C)C2=C1C1CCC(C(C)CCC(=C)C(C)C(=O)O)C1(C)CC2=O (some centres undefined) reads 30.9 µM (inactive)

Known value: UO-31 GI50 of the compound CC(=O)N1C(OCc2ccccc2)CCN1c1ccccc1 (centres undefined) equals > 10 µM (inactive)

Assay UO-31, sample CCCC[S+]([O-])CC(CO)NC(=O)/C=C/c1c(C)[nH]c(=O)[nH]c1=O (centres undefined) , GI50 read: 13.3 µM (inactive)

Record `Cc1c2c(Cl)c3c(c(Cl)c2c(C)c2c(Cl)c4c(c(Cl)c12)C(c1ccccc1)(c1ccccc1)C4(c1ccccc1)c1ccccc1)C(c1ccccc1)(c1ccccc1)C3(c1ccccc1)c1ccccc1` ; system UO-31; GI50 = > 100 µM (inactive)

UO-31 data for `CCOC(=O)C(C)(C(=O)OCC)/C(Cl)=C\Cl` ; its GI50: > 100 µM (inactive)

The recorded GI50 with UO-31 for CCOC(=O)C1=CN(Cc2ccccc2)C2ON=C(c3ccc(Cl)cc3)C2C1 (centres undefined) was 26.9 µM (inactive)

Please turn your attention to the following entry.
UO-31 data for CC(C)(C)c1ccc2c(c1)C(O)(c1ccccc1)c1cc(C(C)(C)C)ccc1C2(O)C(F)(F)F (centres undefined) ; its GI50: 2.11 µM (inactive)

----------
# key: entry, value: GI50
# System: RXF 631
# protocolDescription: NCI tumour cell line growth inhibition, 48 h
The source made the active and inactive calls. Rule as the data show it: active = GI50 up to about 1.1 µM and inactive = higher.

Reported RXF 631 GI50 for item `COC(=O)CSc1nnc(-c2ccc(O)c([N+](=O)[O-])c2)[nH]1` was > 100 µM (inactive)

Log: RXF 631, molecule COC1/C(=C\C(=O)OC(C)(C)C)c2ccccc2N1C(C)=O (stereo unspecified) , GI50 = > 100 µM (inactive)

Entry COC(=O)C(C)NP(=O)(N1CC1)N1CC1 (stereo unspecified) under RXF 631 had GI50 of > 100 µM (inactive)

Next:
Simply: COC(=O)CC(C(C(C)=O)C(=O)OCc1ccccc1)N1C(=O)OC(c2ccccc2)C1c1ccccc1 (stereo unspecified) , RXF 631, GI50 = 89.7 µM (inactive)

RXF 631 assay, molecule `Cc1cc(N(CCC#N)CCC#N)ccc1/C=C1\N=C(c2cc([N+](=O)[O-])ccc2Cl)N(c2cccc(Cl)c2)C1=O` , recorded GI50 = > 100 µM (inactive)

Tested on RXF 631: `COc1ccc(OC)c2[s+]snc12` . Observed GI50: > 100 µM (inactive)
